- Assay target: KRAS G12A (Homo sapiens, UniProt P01116, G12A)
- Sequence (P01116 1-188 isoform P01116-2 G12A): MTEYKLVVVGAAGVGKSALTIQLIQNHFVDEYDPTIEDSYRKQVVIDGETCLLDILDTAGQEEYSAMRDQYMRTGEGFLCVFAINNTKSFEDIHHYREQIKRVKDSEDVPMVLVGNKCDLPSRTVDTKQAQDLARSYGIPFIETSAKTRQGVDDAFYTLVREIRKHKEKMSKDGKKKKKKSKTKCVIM
- Measurement protocol: Cellular KRAS:RAF Disruption Assay (NanoBRET), KRAS G12A
- Experimental conditions: HEK293 T cells co-expressing RAF1 and KRAS G12A, 24 hours; read-out: RAS::RAF binding via NanoBRET IC50, KRAS G12A
Measured property: IC50 (nM)

{"Molecule": "C#Cc1c(F)ccc2cc(O)cc(-c3ccc4c(N5CC6CCC(C5)N6C(=O)C(F)(F)F)nc(OC[C@]56CCC[C@H]5N(C)CCC6)nc4c3F)c12 [Example 7-7]", "Assay target": "KRAS G12A (Homo sapiens, UniProt P01116, G12A)", "Reading unit": "nM", "IC50": 226}

1 = C#Cc1c(F)ccc2cc(O)cc(-c3ccc4c(N5C[C@@H]6C[C@H]5C(=O)N6)nc(OC[C@]56CCC[C@H]5N(C)CCC6)nc4c3F)c12 [Example 5-1]
2 = C#Cc1c(F)ccc2cc(O)cc(-c3ccc4c(N5CCCOCC5)nc(OC[C@]56CCC[C@H]5N(C)CCC6)nc4c3F)c12 [Example 2-3]
Field: lower IC50 | Options: 1 / 2 Returns: label corresponding to the selected item.
2

###

- Assay target: KRAS G12A (Homo sapiens, UniProt P01116, G12A)
- Measurement protocol: Cellular KRAS:RAF Disruption Assay (NanoBRET), KRAS G12A
- Experimental conditions: HEK293 T cells co-expressing RAF1 and KRAS G12A, 24 hours; read-out: RAS::RAF binding via NanoBRET IC50, KRAS G12A
pIC50: −log10 of the molar value.
Measured property: pIC50

# example entries with known answers
{"Compound": "C#Cc1c(F)ccc2cc(O)cc(-c3ncc4c(N5CCOCC(F)(F)C5)nc(OC[C@]56CCC[C@H]5N(C)CCC6)nc4c3F)c12 [Example 1-107]", "Assay target": "KRAS G12A (Homo sapiens, UniProt P01116, G12A)", "pIC50": 8.28}
{"Compound": "C#Cc1c(F)ccc2cc(O)cc(-c3ncc4c(N5CC6COC(C6)C5)nc(OC[C@@]56CCCN5C[C@H](F)C6)nc4c3F)c12 (stereo partly drawn) [Example 1-90]", "Assay target": "KRAS G12A (Homo sapiens, UniProt P01116, G12A)", "pIC50": 7.71}
{"Compound": "C#Cc1c(F)ccc2cc(O)cc(-c3ncc4c(N5CCOC6CC65)nc(OC[C@]56CCC[C@H]5N(C)CCC6)nc4c3F)c12 (single isomer, unassigned) [Example 1-99]", "Assay target": "KRAS G12A (Homo sapiens, UniProt P01116, G12A)", "pIC50": 7.92}

1 = C#Cc1c(F)ccc2cc(O)cc(-c3ncc4c(N5C[C@H]6C[C@@H]5CO6)nc(OC[C@@]56CCCN5C[C@H](F)C6)nc4c3F)c12 [Example 1-37]
2 = C#Cc1c(F)ccc2cc(O)cc(-c3ccc4c(N5CCCOCC5)nc(OC[C@@]56CCCN5C[C@H](F)C6)nc4c3F)c12 [Example 2-2]
# returns the entry with the larger pIC50; inputs 1 and 2 Returns: label corresponding to the selected item.
2

###

- Assay target: KRAS Q61R (Homo sapiens, UniProt P01116, Q61R)
- Sequence (P01116 1-188 isoform P01116-2 Q61R): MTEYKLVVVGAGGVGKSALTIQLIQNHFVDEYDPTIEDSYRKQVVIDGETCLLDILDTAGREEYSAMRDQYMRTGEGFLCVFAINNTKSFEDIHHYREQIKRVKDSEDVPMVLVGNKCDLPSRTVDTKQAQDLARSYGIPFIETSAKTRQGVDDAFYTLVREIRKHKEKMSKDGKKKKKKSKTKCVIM
- Measurement protocol: Cellular KRAS:RAF Disruption Assay (NanoBRET), KRAS Q61R
- Experimental conditions: HEK293 T cells co-expressing RAF1 and KRAS Q61R, 24 hours; read-out: RAS::RAF binding via NanoBRET IC50, KRAS Q61R
pIC50: −log10 of the molar value.
Measured property: pIC50

# example entries with known answers
{"Smiles": "C#Cc1c(F)ccc2cc(O)cc(-c3ccc4c(N5CCCOCC5)nc(OC[C@]56CCC[C@H]5N(C)CCC6)nc4c3F)c12", "Test result": "< 5.30"}
{"Smiles": "C#Cc1c(F)ccc2cc(O)cc(-c3ncc4c(N5CCCOCC5)nc(OC[C@]56CCC[C@H]5N(C)CCC6)nc4c3F)c12", "Test result": 5.84}
{"Smiles": "C#Cc1c(F)ccc2cc(O)cc(-c3ccc4c(N5CC6CCC(C5)N6C(=O)C(F)(F)F)nc(OC[C@]56CCC[C@H]5N(C)CCC6)nc4c3F)c12", "Test result": "< 5.30"}

The recorded pIC50 for C#Cc1c(F)ccc2cc(O)cc(-c3ncc4c(N5CC6CCC(C5)N6C(=O)C5CC5)nc(OC[C@@]56CCCN5C[C@H](F)C6)nc4c3F)c12 is < 5.00

The recorded pIC50 for C#Cc1c(F)ccc2cc(O)cc(-c3ncc4c(N5CCOCC5)nc(OC[C@@]56CCCN5C[C@H](F)C6)nc4c3F)c12 is < 5.00

The recorded pIC50 for C#Cc1c(F)ccc2cc(O)cc(-c3ccc4c(N5CC6CCC(C5)N6C(=O)C(F)(F)F)nc(OC[C@@]56CCCN5C[C@H](F)C6)nc4c3F)c12 is < 5.00

The recorded pIC50 for C#Cc1c(F)ccc2cc(O)cc(-c3ncc4c(N5C6COCC5C6)nc(OC[C@@]56CCCN5C[C@H](F)C6)nc4c3F)c12 is < 5.00

The recorded pIC50 for C#Cc1c(F)ccc2cc(O)cc(-c3ccc4c(N5CCCOCC5)nc(OC[C@@]56CCCN5C[C@H](F)C6)nc4c3F)c12 is 5.64

Provenance of the data: patent US20240199584A1
